- Protocol: in vivo
- Parameters: species or system Beagle dogs
- Condition details: both sexes, Beagle, dog, iv, 50 mg/kg, Drug concentrations in plasma
Result type: concentration at 1.5 h (ng/mL)

{"columns": ["Molecule", "Observed value"],
 "data": [
  ["NC(=O)CN1CC(O)CC1=O (racemic)", 38800]
]}

---

- Protocol: in vivo
- Design: species or system Beagle dogs
- Condition details: both sexes, Beagle, dog, iv, 50 mg/kg, Drug concentrations in plasma

{"columns": ["Compound", "Units symbol", "concentration at 4 h"],
 "data": [
  ["NC(=O)CN1CC(O)CC1=O (racemic) [oxiracetam]", "ng/mL", 13000]
]}

---

- Protocol: in vivo
- Set-up: species or system Beagle dogs
- Condition details: both sexes, Beagle, dog, iv, 50 mg/kg, Drug concentrations in plasma
- Procedure: The study of comparing the pharmacokinetic of the racemic oxiracetam and L-oxiracetam determines the dose orally and intravenously to Beagle dogs for 50 mg/kg. Take six adult Beagle dogs, the numbers of female and male were equal, which were weighted 10.0±0.5 kg and randomly divided into three groups, and each group were two with same numbers of the male and female. Latin square crossover method was used (see Table 1). […] The concentrations of drugs in plasma were determined by LC-MS-MS method. […]

{"columns": ["Compound", "Units symbol", "concentration at 2 h"],
 "data": [
  ["NC(=O)CN1CC(O)CC1=O (racemic) [oxiracetam]", "ng/mL", 35300]
]}

---

- Protocol: in vivo
- Design: species or system Beagle dogs
- Condition details: both sexes, Beagle, dog, iv, 50 mg/kg, Drug concentrations in plasma
- Experimental: The study of comparing the pharmacokinetic of the racemic oxiracetam and L-oxiracetam determines the dose orally and intravenously to Beagle dogs for 50 mg/kg. Take six adult Beagle dogs, the numbers of female and male were equal, which were weighted 10.0±0.5 kg and randomly divided into three groups, and each group were two with same numbers of the male and female. Latin square crossover method was used (see Table 1). […] The concentrations of drugs in plasma were determined by LC-MS-MS method. […]
Result type: concentration at 6 h (ng/mL)

{"columns": ["Compound", "Result type", "Units symbol", "Observed value"],
 "data": [
  ["NC(=O)CN1CC(O)CC1=O (racemic)", "concentration at 6 h", "ng/mL", 9350]
]}

---

- Protocol: in vivo
- Design: species or system Beagle dogs
- Condition details: both sexes, Beagle, dog, iv, 50 mg/kg, Drug concentrations in plasma

{"columns": ["Compound", "Units symbol", "concentration at 1 h"],
 "data": [
  ["NC(=O)CN1CC(O)CC1=O (racemic) [oxiracetam]", "ng/mL", 30800]
]}
